- Experimental target: REV-ERBα LBD (human; residues 281-614 Δ324-422) (Homo sapiens, UniProt P20393, DEL324-422)
- Construct: 6×Histag-REV-ERBα LBD (human; residues 281-614 Δ324-422); made in house; host or cells: Escherichia coli
- Sequence (P20393 with tags, fused parts or gaps DEL324-422): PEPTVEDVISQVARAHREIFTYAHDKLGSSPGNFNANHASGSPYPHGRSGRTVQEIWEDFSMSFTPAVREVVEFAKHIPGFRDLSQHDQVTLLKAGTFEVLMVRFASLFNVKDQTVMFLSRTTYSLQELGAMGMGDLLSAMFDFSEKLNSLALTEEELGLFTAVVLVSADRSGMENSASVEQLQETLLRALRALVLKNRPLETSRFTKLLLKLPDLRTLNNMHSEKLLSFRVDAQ
- Sequence (Q9Y618 2335-2356 partner limits assumed): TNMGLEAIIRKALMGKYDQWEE
- Test method notes: TR-FRET corepressor interaction assay (REV-ERBα LBD, FITC-SMRT peptide)
- Format: biochemical
- Experimental conditions: Table 2, read-out: REVERBα agonism (EC50 class, FRET assay)
Property label: EC50

{"Line notation": "CC(C)(C)Cc1cn(CCNS(=O)(=O)C2CC2)c2ccc(-c3cccc(F)c3Cl)cc12", "Value observed": "< 500 nM"}
{"Line notation": "CC(C)Cn1cc(C2(NS(=O)(=O)N(C)C)CC2)c2ccc(-c3ccncc3)cc21", "Value observed": "> 3000 nM"}
{"Line notation": "Cc1c(-c2ccncc2)ccc2c(CCNS(=O)(=O)N(C)C)cn(CC(C)C)c12", "Value observed": "< 500 nM"}
{"Line notation": "Cc1noc(C)c1S(=O)(=O)NCCc1cn(CC(C)C)c2cc(-c3ccncc3)ccc12", "Value observed": "> 3000 nM"}
{"Line notation": "CC(C)Cn1cc(CCN(C(C)C)S(=O)(=O)C(C)C)c2ccc(-c3ccncc3)cc21", "Value observed": "< 500 nM"}
{"Line notation": "CC(C)(C)Cn1cc([C@H](NS(=O)(=O)C2CC2)C(F)(F)F)c2ccc(-c3ccc(F)cc3C(F)(F)F)cc21", "Value observed": "< 500 nM"}
{"Line notation": "CN(C)S(=O)(=O)NCCc1cn(C2CC2)c2cc(-c3ccncc3)ccc12", "Value observed": "> 3000 nM"}
{"Line notation": "CN(C)S(=O)(=O)NCCn1cc(CC(C)(C)C)c2cc(-c3ccccc3Cl)ccc21", "Value observed": "< 500 nM"}

Reference source: patent US20230339886A1
